Molecular target: CXCR7 (Homo sapiens, UniProt P25106)
Sequence (P25106 whole entry): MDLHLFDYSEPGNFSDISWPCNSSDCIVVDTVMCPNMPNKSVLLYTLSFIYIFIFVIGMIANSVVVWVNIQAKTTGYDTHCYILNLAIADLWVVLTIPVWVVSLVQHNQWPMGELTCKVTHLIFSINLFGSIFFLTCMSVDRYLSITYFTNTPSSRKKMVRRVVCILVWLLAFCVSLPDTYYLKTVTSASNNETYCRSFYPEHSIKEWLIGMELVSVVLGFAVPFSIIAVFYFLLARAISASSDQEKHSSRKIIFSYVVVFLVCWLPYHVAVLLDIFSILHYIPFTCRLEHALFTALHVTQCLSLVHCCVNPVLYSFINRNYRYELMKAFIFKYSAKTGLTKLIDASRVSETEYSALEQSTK
Test: CXCR7 β-arrestin recruitment assay in CHO-CXCR7 cells (ProLink/EA β-galactosidase complementation), induced by human SDF-1a
Details: assay buffer, SDF-1a at EC50 concentration
pIC50: −log10 of the molar value.
measurementKind: pIC50

For orientation, consider the following solved cases.
- compound: "CC(C)(NC(=O)CC1(NC(=O)c2cc(-c3ccc(F)cc3F)on2)CN(C2CCCCC2)C1)c1ccc(F)cc1F"
  pIC50: "4.70 to 6.00"
- compound: "CC(C)(NC(=O)CC1(NC(=O)c2cn(-c3ccc(F)cc3)nn2)CN([C@H]2CC[C@](C)(O)CC2)C1)c1ccccc1"
  pIC50: "6.00 to 7.00"
- compound: "CC(C)(F)CN1CC(CC(=O)NC(C)(C)c2cccc(Cl)c2)(NC(=O)c2cc(-c3ccc(F)cc3F)on2)C1"
  pIC50: "6.00 to 7.00"
- compound: "CC(C)(NC(=O)CC1(NC(=O)c2nnc(-c3ccc(F)cc3F)s2)CN(C2CCCCC2)C1)c1ccccn1"
  pIC50: "> 8.30"
- compound: "CC(C)(NC(=O)CC1(NC(=O)c2cc(-c3ccc(F)cc3F)on2)CN([C@H]2CC[C@@](C)(O)CC2)C1)c1cccc(C2CC2)c1"
  pIC50: "7.00 to 8.30"

Fill blank: measured pIC50 of the compound CC(C)(NC(=O)CC1(NC(=O)c2cc(-c3ccc(F)cc3F)on2)CN([C@H]2CC[C@](C)(O)CC2)C1)c1ccccc1C(F)(F)F is ____. > 8.30

// repeat for CC1(C)CC(N2CC(CC(=O)NC(C)(C)c3cccc(Cl)c3)(NC(=O)c3cc(-c4ccc(F)cc4F)on3)C2)CCO1 (stereo not shown) and report 7.00 to 8.30
